The measured values listed here are drawn from the supplement of paper PMC12764529.

Run Description: folding stability dG unfold from trypsin proteolysis; higher = more stable
Parameter Measured: folding stability dG unfold (kcal/mol)
The reply should contain only the number, in kcal/mol.

Fill blank: measured folding stability dG unfold of the sequence SAGGSAGGELELELTVRLPNGLEVRIRARVKFDEETNEWTITEIEIEIRPLPPPPVLDKDGKLVSAGGSAGG [r6_506_TrROS_Hall] is ____.
3.24

Try the sequence SAEEPEVVRLEIRITVVERDEDGRLREREVTLEVEVLPDGRVVIRVDGRVFVIDLETGELVEVLEDVEPSAG [r14_821_TrROS_Hall]
3.77

Try the sequence SAGGSMPYKTLEESESEIYDPSNGNVKYKVKTETILLPDGTILVKETIYDPETGTTETKTYTIPKGSAGGSA [r2_13_JUSTAS]
1.54

Try the sequence SAGMYTITISRLPGGEYEVRVTDAANGEEVARRPVASEEEARAEAERIAAEIAEADPDVEVRVSESDAESAG [r5_383_JUSTAS]
2.51

----------
Record form. Attribute: folding stability dG unfold. Fill in for each entry.
Run Description: folding stability dG unfold from trypsin proteolysis; higher = more stable
The reply should contain only the number, in kcal/mol.

Fill blank: measured folding stability dG unfold of the sequence SAGGSAGGSAGGMEFKPGQEIEIVLKDENGRLIVIKAKVKKVDGKLVIEIEEAYELDDLSAGGSAGGSAGGS [r10_744_TrROS_Hall] is ____.
2.34

Try the sequence SAGFLGFGIEPHPNGWFKIEIMVMFPWPGGWFMFSIDITIPIVPIEPPPPPPVVEPKKENGKPKEWKYDSAG [r5_169_TrROS]
1.91

Try the sequence SAGGSAGGSAGYVVIPLDIDAEPGATVEITLPNGEKIEAIVEDHPDGLRSVRVGDGVILVPGSAGGSAGGSA [r18_372_TrMRF]
0.465

Try the sequence SAIPINLPPGDKVKITFRNPDGSRMEIEFDPENGKWKVKMRPNDGKKQEQTIPAGNLDDLPPGVYSIEPVSA [r9_1110_TrROS]
1.08

----------
Run Description: folding stability dG unfold (combined trypsin and chymotrypsin); higher = more stable
Parameter Measured: folding stability dG unfold (kcal/mol)
The reply should contain only the number, in kcal/mol.

Fill blank: measured folding stability dG unfold of the sequence SAMKKTETRVLEIRIGDYLAKIFLTEYEDGRVETLIEVYGPDPAVVEEVKDFLEKLDPDLEITEIVVLDSAG [r14_611_TrMRF] is ____.
2.68

Try the sequence SAGGSAGGSAGWRTHSHWVPPDNIPELAERIQDWGVKVEIERDPKDGWYRVTITIPDDFISAGGSAGGSAGG [r11_1043_TrROS]
1.21

Try the sequence SAGGGIAEILEIREFEDGVEILILTDDLDDPEIIEELIDEIAEELGLPKEKIRAHIIPADIPPLPDEESAGG [r13_430_TrMRF]
1.04

Try the sequence SAGGSAGGSELSDEEIEALRKPPKVRIRVEIVYPDGTVEEREFSSLEEALAAAKERNVTVKILSAGGSAGGS [r12_244_TrROS_Hall]
2.28

Try the sequence SAGGSAASVVEKTLSPDGTLFVTIKVDPEKKSVPFSITTPDGTPVTVTLPPNTTKTVRVPLGEAALSAGGSA [r15_336_JUSTAS]
-0.39

Try the sequence SKTVEITLTNEDGSTVTITFNEETGKIVIKVPPNVSVEQIKALLRKLLPPGAEVTITRTPNGYYEIEVKPSA [r9_933_TrROS_Hall]
4.14

Try the sequence SAGGSAPFPIKISTIRYPDGYIRMEIWIPPDAPIKIKFPNGFEMEVEPVPNGYYRITMYFRIPKEDSAGGSA [r15_523_TrROS]
4.53
